Tested on: P388 leukemia ip, CD2F1 mice, survival T/C
assay remarks: NCI In Vivo Anticancer Drug Screen. Data for tumor model P388 Leukemia (intraperitoneal) in CD2F1 (CDF1) mice
details: endpoint: median survival time; dose: 60.0 mg/kg/injection; schedule: Q01DX005 (ip); vehicle: Klucel (hydroxypropylcellulose) (HPC); higher = longer survival
Toxic doses and inconclusive results are not listed.
Exercise: for every item that follows, state its recorded T/C.

Recorded result, COC(=O)c1nc(N)nc(C(=O)OC)c1C(=O)c1ccncc1 , T/C: 92 % of control

Form: compound = O=C1C(c2nc3ccccc3[nH]2)=C(O)c2ccccc21 ; T/C = 87 % of control

Record OCC1CC(c2ccccc2)=NO1 (configuration not stated) . Reported T/C: 101 % of control

Summary for this compound, Cc1cc(=O)n2c(nc3ccccc32)o1 : T/C is 104 % of control

Recorded T/C (compound O=C(NC1(Sc2ccccc2)CC1)c1ccc(Cl)cc1 ): 88 % of control

Measured T/C of CN(C)c1ccc(C2CC(C)(O)Oc3cc4c(cc32)OCO4)cc1 (configuration not stated) : 102 % of control

Sure, the documented T/C for Nc1ncnc2ncn(CC(O)CN(CCO)CCO)c12 (configuration not stated) is 100 % of control
